# target_or_system: Actin [R183K] (Saccharomyces cerevisiae (strain ATCC 204508 / S288c), UniProt P60010, R183K)
# assay_name: Liquid growth assay
# experimental_setup: 30 °C
Reported IC50 values are given for each entry in this list.
Field: numeric (nM). Do not append units.

- compound: "C/C1=C\\[C@@H](C)[C@@H](C)OC(=O)C[C@H](c2ccc(O)cc2)NC(=O)[C@@H](Cc2c[nH]c3ccccc23)N(C)C(=O)[C@H](C)NC(=O)[C@@H](C)C1"
  measured_metric: "IC50"
  readout_value: 11900

Record COC1CC(O)/C=C/C=C/C=C\C(C)C(C(C)C(O)CC(C)O)OC(=O)\C=C/C=C/C=C\C(C)=C\C(C)C(O)/C=C\C=C\c2coc(n2)C1C (stereo not drawn) , field IC50: 380

The compound listed as C/C1=C/C(=O)O[C@@H]2C[C@@H](CC[C@H](C)/C=C\C=C\CC1)O[C@@](O)([C@@H]1CSC(=O)N1)C2 has a reported IC50 of 110

###

# target_or_system: Actin [R335K] (Saccharomyces cerevisiae (strain ATCC 204508 / S288c), UniProt P60010, R335K)
# assay_name: Liquid growth assay
# experimental_setup: 30 °C
pIC50 for assorted molecules
Give only the number. pIC50 is defined as minus log10 of concentration in molar units.

- molecule: "COC1CC(O)/C=C/C=C/C=C\\C(C)C(C(C)C(O)CC(C)O)OC(=O)\\C=C/C=C/C=C\\C(C)=C\\C(C)C(O)/C=C\\C=C\\c2coc(n2)C1C (stereo not drawn) [SCHEMBL1889389]"
  measured_metric: "pIC50"
  readout_value: 6.57
- molecule: "C/C1=C/C(=O)O[C@@H]2C[C@@H](CC[C@H](C)/C=C\\C=C\\CC1)O[C@@](O)([C@@H]1CSC(=O)N1)C2 [LAT-A]"
  measured_metric: "pIC50"
  readout_value: 7.40

Let's switch to this molecule now.
GET /value?item= C/C1=C\[C@@H](C)[C@@H](C)OC(=O)C[C@H](c2ccc(O)cc2)NC(=O)[C@@H](Cc2c[nH]c3ccccc23)N(C)C(=O)[C@H](C)NC(=O)[C@@H](C)C1 [CHEBI:84382] &field=pIC50 returns 4.82

Origin of measurements: BindingDB's records for doi:10.1021/acschembio.7b00385
